- System: nude mice, HT29 intrarenal xenograft, tumor weight T/C
- method-description: NCI In Vivo Anticancer Drug Screen. Data for tumor model HT29;CX-1 Human Adenocarcinoma (MER+) (intrarenal inoculation) in NU/NU Swiss (nude) mice
- cond: endpoint: mean tumor weight change; dose: 450.0 mg/kg/injection; schedule: Q04DX004 (sc); vehicle: saline; higher = larger tumour
Inconclusive results are not listed.
measurement-type: T/C

Look over these answered cases.
> print(dat)
                                   compound            result
1        OCCCN1CCCCC1CO (centres undefined)   89 % of control
2  COC(=O)C(N)Cc1ccc(O)c(O)c1 (centres undefined)  104 % of control
3  O=C[C@@H](CO)O[C@H](C=O)n1cnc2c(=O)[nH]cnc21   86 % of control

Okay, now this compound:
*Q* Consider the compound shown here: NC(=O)c1ncn(C2OC(CO)C(O)C2O)n1 (centres undefined) What is its recorded T/C?
*A* 75 % of control
